TARGET_OR_SYSTEM: T1, cynomolgus FGFR3b expressed with a C-terminal myc-myc-hexahistidine tag (mfFGFR3b.mmH) (cynomolgus)
T1 construct: also called REGN3521; mf FGFR3b ecto (R357G)(E23-G377;R357G).mmH
T1 chain: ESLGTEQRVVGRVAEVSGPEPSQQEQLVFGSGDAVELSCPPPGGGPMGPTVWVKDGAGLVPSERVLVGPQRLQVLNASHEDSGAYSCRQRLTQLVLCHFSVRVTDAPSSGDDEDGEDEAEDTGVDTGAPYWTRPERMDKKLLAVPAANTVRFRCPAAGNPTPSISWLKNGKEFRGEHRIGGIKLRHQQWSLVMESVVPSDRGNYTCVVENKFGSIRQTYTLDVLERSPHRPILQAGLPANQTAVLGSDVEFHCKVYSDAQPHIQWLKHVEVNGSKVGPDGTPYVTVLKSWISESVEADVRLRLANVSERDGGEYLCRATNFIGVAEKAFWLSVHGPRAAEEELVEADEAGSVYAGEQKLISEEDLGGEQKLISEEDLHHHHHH
PROCEDURE_DETAILS: SPR Biacore, mAb captured on anti-hFc, 25C
REPORTED_PROPERTY: kon (M⁻¹ s⁻¹)

1. H4H30045P (antibody, human IgG4 S228P, kappa, V domains shown, HCVR 179, LCVR 187) VH: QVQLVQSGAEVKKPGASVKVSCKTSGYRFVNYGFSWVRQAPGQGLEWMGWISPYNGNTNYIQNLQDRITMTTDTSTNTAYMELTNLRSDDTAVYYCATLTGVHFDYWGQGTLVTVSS VL: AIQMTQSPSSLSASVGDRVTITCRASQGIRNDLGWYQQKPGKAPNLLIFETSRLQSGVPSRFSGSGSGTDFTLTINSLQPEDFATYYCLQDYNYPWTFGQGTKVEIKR	429000
